conditions: pH 5.0
attributeMeasured: logD
Enter the number alone.

Enquiry: Using the record for C[C@@H](NC(=O)CN(C1CCCCC1)S(=O)(=O)c1ccccc1)c1ccccc1 , report its logD.
Return: 4.9

Enquiry: Using the record for O=C1[C@H]2[C@@H](C(=O)N1c1ccccc1)C1(O[C@H]2c2ccccc2)C(=O)c2ccccc2C1=O , report its logD.
Return: 4

Enquiry: What measured logD goes with CC1CCN(S(=O)(=O)N2CCC(C(=O)N[C@@H](C)c3ccccc3)CC2)CC1 ?
Return: 4.92

====

Kindly supply the reported logD values for the records listed here.
settings: pH 10.5
Lab note: jot the number down without any unit.

Enquiry: Which logD value belongs to CC(=O)C1=C(C)NC(SCC(=O)Nc2ccccc2)=C(C#N)[C@H]1c1ccccc1Cl ?
Return: 4.97

Enquiry: Record request: logD value, item CCOc1ccc(N2CN=c3s/c(=C\c4cc(OC)c(OC)cc4[N+](=O)[O-])c(=O)n3C2)cc1
Return: 4.93

Enquiry: Quick one: logD for C=CCn1/c(=N/C(=O)c2cc(OC)c(OC)c(OC)c2)sc2cccc(OC)c21 ?
Return: 5.14

Enquiry: logD for COC(=O)c1c(C)sc2c1OC(N)=C(C#N)[C@@H]2c1cc(Br)cs1 ?
Return: 5.06

Enquiry: What value of logD has been reported for the following compound? CC1(C)CC(=O)C2=C(C1)OC(N)=C(C#N)[C@H]2c1c2ccccc2cc2ccccc12
Return: 4.99

====

assay: method code SF, from DOI: 10.1016/j.ejps.2012.10.019, PMID: 23131797; conditions: pH 5.0
attributeMeasured: logD
Could you keep your reply to the number by itself?

Enquiry: Entry O=C(OCC(=O)N1CCCC1)c1c2ccccc2cc2ccccc12 : reported logD = ?
Return: 4.09

Enquiry: // logD lookup, key: CC(=O)Oc1cccc(N2C(=O)c3ccc(C(=O)c4ccc5c(c4)C(=O)N(c4cccc(OC(C)=O)c4)C5=O)cc3C2=O)c1
Return: 5.13

Enquiry: Quick check: logD of COc1cccc2c1N(C(=O)CC(C)C)C(C)(C)c1ssc(=S)c1-2 ?
Return: 5.09

Enquiry: Any idea what logD was measured for O=C1CC(c2cccc([N+](=O)[O-])c2)CC2=C1C(c1ccco1)N(C(=O)C(F)(F)F)c1ccccc1N2 (stereo not given) ?
Return: 4.68

Enquiry: Which measured logD value corresponds to COC(=O)C1=C(C)NC(C)=C(C(=O)OC)C1c1cn(-c2ccccc2)nc1-c1cccc([N+](=O)[O-])c1 ?
Return: 5.04

Enquiry: Find the recorded logD belonging to CCc1ccc(-n2nnnc2SCC(=O)Nc2ccc(C(C)=O)cc2)cc1 and report it.
Return: 4.69

Enquiry: May I ask what logD has been recorded for O=C(Cn1c(=O)n(-c2ccccc2)c(=O)n1CC(=O)N1CCCCC1)N1CCCCC1 ?
Return: 2.78

Enquiry: // returns reported logD for input CCCCOc1ccc(C(=O)Oc2ccc3c(c2)OCO3)cc1OC
Return: 4.77

Enquiry: Fill in the blank: the reported logD of CCOC(=O)C(C)(C)N(CCC(C)C)S(=O)(=O)c1ccc([N+](=O)[O-])cc1 is ____.
Return: 4.75

Enquiry: If you can, please state the reported logD value of O=C(COc1ccc(C(F)(F)F)cc1[N+](=O)[O-])Nc1ccccc1Br .
Return: 5.16

Enquiry: Quick check: logD of Cc1ccc(NC(=O)CSc2nnc(Cc3ccccc3)o2)cc1Cl ?
Return: 4.85

Enquiry: Can you look up the measured logD of CCCS(=O)(=O)c1c(S(=O)(=O)CCC)c2cnccn2c1C(=O)c1ccc(C)cc1 for me?
Return: 3.93

Enquiry: Given N#CCSc1nc2ccccc2c(=O)n1-c1ccc(OC(F)F)cc1 , state its recorded logD.
Return: 4.17

Enquiry: Find the recorded logD belonging to COC(=O)/C=C/CN1C(=O)c2ccccc2C1=O and report it.
Return: 2.46

Enquiry: For the compound CC(C)N(Cc1nc(-c2ccccc2)no1)C(=O)c1ccccc1CCc1ccccc1 , what logD is on record?
Return: 5.98

Enquiry: Which logD reading was recorded for the compound CCC(CC)NC(=O)c1ccc(Cl)c(S(=O)(=O)N2CCCC2)c1 ?
Return: 3.6

Enquiry: Given the compound COc1ccccc1Nc1nc(OCC(F)(F)F)nc(OCC(F)(F)F)n1 , what is its reported logD?
Return: 5.27

Enquiry: Which logD value belongs to COC(=O)c1cc(C(=O)OCC(=O)c2[nH]c(C)c(C(C)=O)c2C)cc([N+](=O)[O-])c1 ?
Return: 3.82

Enquiry: Quick check: logD of CCOC(=O)c1c(C)[nH]c(C)c1C(=O)COC(=O)c1ccc(F)c(S(=O)(=O)N2CCOCC2)c1 ?
Return: 3.63

Enquiry: # query: logD of entry O=C(c1ccc(F)cc1)C1CC1
Return: 2.61

Enquiry: logD lookup needed for COc1cc(C(=O)Nc2cccc(C#N)c2)cc(OC)c1OC , thanks.
Return: 3.44

Enquiry: Which value of logD has been reported for O=C1c2ccccc2C(=O)N1c1ccccc1S(=O)C(F)(F)F (stereo not given) in the records?
Return: 3.3

Enquiry: Given the compound CCCCCCSC1=C(C#N)C(c2cccs2)C(C(=O)Nc2ccccc2OC)=C(C)N1 (stereo not given) , what is its reported logD?
Return: 6.28

Enquiry: What value of logD has been reported for the following compound? CC1(C)OC(=O)C(=Cc2ccc([N+](=O)[O-])s2)C(=O)O1
Return: 3.04

Enquiry: # lookup: logD of CCOC(=O)c1cnn(C(=O)c2cnn(-c3ccc([N+](=O)[O-])cc3)c2C(F)(F)F)c1N
Return: 3.53
